Field IC50: reported value for Histone deacetylase 1 (Homo sapiens, UniProt Q13547); entries drawn from several documents.

- smiles_str: "CC1(C)C(=O)N(Cc2ncc(-c3nnc(C(F)F)o3)cn2)C(=O)c2ccc(Br)cc21"
  IC50: "> 10 µM"

What IC50 value was documented for this molecule, Nc1ccc(-c2ccccn2)cc1NC(=O)c1ccc(N2CCNCC2)cn1 ?
0.01 to 0.5 µM

Another molecule to look at: O=C(NO)c1cccc2c1C[C@]1(CCN(Cc3ccc(Cl)c(C(F)(F)F)c3)C1=O)C2
> 10 µM

Try this molecule too: Cn1c(=O)n(Cc2ccc(-c3nnc(C(F)F)o3)cn2)c(=O)c2cc(-c3ccco3)ccc21
> 10 µM

###

Literature-derived pIC50 for Histone deacetylase 1 (Homo sapiens) follows.
pIC50: −log10 of the molar value.

Some molecules with known pIC50 results, for comparison:
- smiles_str: "CN1CC=C(c2ccc3c(c2)C(C)(C)C(=O)N(Cc2ccc(-c4nnc(C(F)F)o4)cn2)C3=O)CC1"
  pIC50: "< 5.00"
- smiles_str: "COC(=O)N[C@H]1CCN(c2ccc(C(=O)Nc3ccccc3N)cn2)C1"
  pIC50: "≥ 6.30"

Next item in the queue.
May I ask what pIC50 has been recorded for O=C(Cc1ccc(-c2csc(NC(=O)c3ccn(CC4CCNCC4)c3-c3ccccc3)n2)s1)NO ?
< 4.00

###

pIC50: −log10 of the molar value.
// read-out pIC50, gathered for Histone deacetylase 1 (Homo sapiens, UniProt Q13547) from published studies

Known results for molecules:
- molecule: "CC(C)(O)CN1CCC(c2ccc3ccn(Cc4ccc(C(=O)NO)cc4)c3n2)CC1"
  pIC50: 6.06
- molecule: "O=C(/C=C/c1ccc(OCc2cccnc2)cc1Oc1cccc(Cl)c1)NO"
  pIC50: "5.00 to 6.00"
- molecule: "O=C(NO)c1ccc(Cn2ccc(C3(c4ccncc4)CCCO3)cc2=O)cc1 (stereo not drawn)"
  pIC50: "6.70 to 7.30"

// returns reported pIC50 for input COc1cc(CN(C(=O)OCc2ccccc2)[C@H]2CCN(c3ccc(C(=O)Nc4ccccc4N)cc3)C2)cc(OC)c1OC
≥ 6.30

Cool, now CC1(C)C(=O)N(Cc2ccc(-c3nnc(C(F)F)o3)cn2)C(=O)c2ccc(-c3ccncc3)cc21
< 5.00

Would you mind doing Nc1ccc(-c2ccco2)cc1NC(=O)c1cnc(N2CCNCC2)s1 as well?
> 8.00

Also, CN(Cc1ccc(/C=C/C(=O)NO)cc1F)CC12CC3CC(CC(C3)C1)C2 please.
9.11

And for O=C(/C=C/c1ccc(CN2CCCC(c3c[nH]c4ccccc34)C2)cc1)NO (stereo not drawn) ?
8.05

Moving on to the next molecule: COCCN1CCN(Cc2ccc(C(=O)Nc3cc(-c4cccs4)ccc3N)cc2)CC1
> 6.00

###

pIC50: −log10 of the molar value.
Literature pIC50 values, system: Histone deacetylase 1 (Homo sapiens, UniProt Q13547).

- smiles_str: "COCc1cc(N(CCCCCCC(=O)NO)c2nc(C)ns2)ncn1"
  pIC50: "< 6.00"
- smiles_str: "Nc1ccccc1NC(=O)c1ccc(N2CC[C@H](NC(=O)OCC3CC3)C2)cc1"
  pIC50: "≥ 7.00"
- smiles_str: "Nc1ccc(-c2ccc(F)cc2F)nc1NC(=O)N1Cc2cn(C3COC3)nc2C1"
  pIC50: "5.30 to 6.30"
- smiles_str: "CC1(C)C(=O)N(Cc2ccc(-c3nnc(C(F)F)o3)cn2)C(=O)c2cc(-c3ccncc3)ccc21"
  pIC50: "< 5.00"

Here is another molecule to look at.
Returns the measured pIC50 for the input molecule. Input: CN1CCC(Cn2c(=O)n(Cc3ccc(-c4nnc(C(F)F)o4)cn3)c(=O)c3ccccc32)CC1
< 5.00

###

pIC50: −log10 of the molar value.
// cross-study collection: pIC50 for Histone deacetylase 1 (Homo sapiens)
attribute_measured: pIC50

Sample records with pIC50:
- smiles_str: "Cn1cnc2c(NC3CCCCC3)nc(Nc3ccc(OCCCCCC(=O)NO)cc3)nc21"
  pIC50: 6.37
- smiles_str: "O=C(/C=C/c1ccc(CN2CCCCC2)cc1)NO"
  pIC50: 7.00
- smiles_str: "Nc1ccccc1NC(=O)c1ccc(N2CC[C@H](Oc3ccc(Oc4ccccc4)cc3)C2)cc1"
  pIC50: 5.86
- smiles_str: "CCCN(CCn1cnc2cc(/C=C/C(=O)NO)ccc21)CCC(C)(C)C"
  pIC50: 7.51

I. CC/C=C\CCc1nc2cc(/C=C/C(=O)NO)ccc2n1CCNC(C)C
II. CC(C)(C)OC(=O)N1CC=C(c2ccc3ccn(Cc4ccc(C(=O)NO)cc4)c3n2)CC1
Could you tell me which of I and II has the lower pIC50 reading? Reply with the label of the item you choose.
II

###

# IC50 against Histone deacetylase 1 (Homo sapiens), merged from multiple literature sources

Can you look up the measured IC50 of O=C(NO)c1ccc(NCc2cc(F)ccc2F)cc1 for me?
450 to 600 nM

Queued: CCc1cc2c(cn1)CN(C(=O)Nc1nc(-c3cccnc3)ccc1N)C2
500 to 5000 nM

What would you report for CCNCCn1c(CC(C)CC(C)(C)C)nc2cc(/C=C/C(=O)NO)ccc21 (stereo not shown) ?
27 nM

Now the same for CCc1nc2cc(/C=C/C(=O)NO)ccc2n1CCNCCC(C)(C)C
74 nM

What do you have for CC1(C)C(=O)N(Cc2ccc(-c3nnc(C(F)F)o3)cn2)C(=O)c2cc(C3=CC[S+]([O-])CC3)ccc21 (stereo not shown) ?
> 10000 nM

Same for O=C(NO)c1cnc(NC2(c3cc(F)cc(F)c3)CCCCC2)nc1
1040 nM

Ok, now O=C(CCCCCCN(c1cncnc1)c1cnccn1)NO
> 1000 nM

Try the molecule Nc1ccc(-c2cccs2)cc1NC(=O)c1ccc(CN2CC[C@@H](O)C2)cc1
< 1000 nM

Request: CC(C)N1CC2(C1)C(=O)N(Cc1ccc(-c3nnc(C(F)F)o3)cn1)C(=O)N2c1ccccc1
> 10000 nM

Param item: CCC(=O)CCCCC[C@H](NC(=O)CN1CCN(C)CC1)c1ncc(-c2ccccc2)o1
100 to 1000 nM

Moving on to CC(C)(C)OC(=O)N1CC=C(c2cnc3ccn(Cc4ccc(C(=O)NO)cc4)c3c2)CC1
620 nM

###

IC50 for Histone deacetylase 1 (Homo sapiens, UniProt Q13547) - collated from the literature.

Reference set (3 entries):
- molecule: "O=C(NO)c1ccc(Cn2ccc3cc(N4CCC5(CC4)CN(Cc4cccnc4)C5)cnc32)cc1"
  assay_system: "Histone deacetylase 1 (Homo sapiens, UniProt Q13547)"
  IC50: "650 nM"
- molecule: "O=C(NO)c1ccc(Cn2ccc(C3(c4ccc(F)cc4)CCO3)c(F)c2=O)cc1 (stereo not shown)"
  assay_system: "Histone deacetylase 1 (Homo sapiens, UniProt Q13547)"
  IC50: "50 to 200 nM"
- molecule: "CC1(C)C(=O)N(Cc2ccc(-c3nnc(C(F)F)o3)cn2)C(=O)c2c(N3CCOCC3)cccc21"
  assay_system: "Histone deacetylase 1 (Homo sapiens, UniProt Q13547)"
  IC50: "> 10000 nM"

Turning to the following molecule.
Value lookup for IC50; key = CN(C)[C@H]1CC(=O)N(Cc2ccc(C(=O)Nc3cc(-c4cccs4)ccc3N)cc2)C1=O
< 1000 nM

###

Compiled record: pIC50 values for Histone deacetylase 1 (Homo sapiens, UniProt Q13547) across several sources.
pIC50: −log10 of the molar value.

Before answering, review these 5 worked examples.
- compound: "Nc1ccc(-c2ccc(F)cc2)cc1NC(=O)c1cnc(N2CCNCC2)s1"
  pIC50: "> 8.00"
- compound: "Nc1ccc(-c2cccs2)cc1NC(=O)c1ncc(N2CCNCC2)cn1"
  pIC50: "7.70 to 8.00"
- compound: "CN1CCN(c2c(N(Cc3ccc(-c4nnc(C(F)F)o4)cc3F)c3cc(F)cc(Br)c3)c(=O)c2=O)CC1"
  pIC50: "< 5.00"
- compound: "CCC(=O)CCCCC[C@H](NC(=O)C1CN(C)C1)c1nnc(-c2cc3ccccc3nc2OC)o1"
  pIC50: "> 7.00"
- compound: "CN1CCN(Cc2ccc(C(=O)Nc3cc(-c4cccs4)ccc3N)cc2)CC1"
  pIC50: "> 6.00"

Below: the item to evaluate.
Reported pIC50 for Cc1ncc2c(n1)CN(C(=O)Nc1nc(-c3ccc(F)cc3)ccc1N)C2 : what is it?
5.30 to 6.30

###

The entries below pair compounds with IC50 values for Histone deacetylase 1 (Homo sapiens, UniProt Q13547), as found in several publications.

Before answering, review these 3 worked examples.
- smiles_str: "Cn1c(=O)n(Cc2ccc(-c3nnc(C(F)F)o3)cn2)c(=O)c2ccc(-c3ccccc3F)cc21"
  assay_system: "Histone deacetylase 1 (Homo sapiens, UniProt Q13547)"
  IC50: "> 10 µM"
- smiles_str: "COC(=O)N[C@H]1CCN(c2ccc(C(=O)Nc3ccccc3N)cc2)C1"
  assay_system: "Histone deacetylase 1 (Homo sapiens, UniProt Q13547)"
  IC50: "≤ 0.5 µM"
- smiles_str: "Cc1c(Cc2ccc(C(=O)NO)cc2)c2ccccc2n1CC1CCN(CC2(F)CCN(CC(C)(C)F)CC2)CC1"
  assay_system: "Histone deacetylase 1 (Homo sapiens, UniProt Q13547)"
  IC50: "> 10 µM"

// map Nc1ccc(-c2ccc(F)cc2)nc1NC(=O)c1ccc(N2CCOCC2)nc1 to recorded IC50 (system: Histone deacetylase 1 (Homo sapiens, UniProt Q13547))
< 0.2 µM
